# Target of assay: T1, human ACVR2A (human, UniProt P27037 20-135, limits assumed); note: test concentration or dose not given here
# T1 construct: coated antigen of the initial ELISA; also called activin receptor, type II A
# T1 sequence (P27037 20-135 limits assumed): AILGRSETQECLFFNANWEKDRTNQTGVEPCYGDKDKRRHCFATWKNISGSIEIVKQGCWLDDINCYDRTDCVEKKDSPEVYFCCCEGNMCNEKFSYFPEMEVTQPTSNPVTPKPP
# Method description: ELISA
# optical density values compiled below
# value in OD; strip the unit string

Worked cases, optical density given:
Binder	Recorded metric	Test result
374_G03 (antibody, V domains shown, Group III) VH: EVQLLESGGGLVQPGGSLRLSCAASGFTFSDYSMNWVRQAPGKGLEWVSGINYNGGYTSYADSVKGRFTISRDNSKNTLYLQMNSLRAEDTAVYYCARGANWHDTALDYWGQGTLVTVSS VL: DIQMTQSPSSLSASVGDRVTITCRASQSISSYLNWYQQKPGKAPKLVIYAATSRASGVPSRFSGSGSGTDFTLTISSLQPEDFATYYCQQSDDTPLTFGGGTKVEIK	optical density	3.79
371_B03 (antibody, V domains shown, Group III) VH: EVQLLESGGGLVQPGGSLRLSCAASGFTFSSYGMHWVRQAPGKGLEWVASINYNGGYTSYADSVKGRFTISRDNSKNTLYLQMNSLRAEDTAVYYCARGANWHDTHLDYWGQGTLVTVSS VL: DIQMTQSPSSLSASVGDRVTITCRASQSILSYVNWYQQKPGKAPKLLIYATTSRASGVPSRFSGSGSGTDFTLTISSLQPEDFATYYCQQSYDNPLTFGGGTKVEIK	optical density	1.63

Proceeding to the next binder to report its optical density.
// query optical density value for entry 371_F10 (antibody, V domains shown, Group III) VH: EVQLLESGGGLVQPGGSLRLSCAASGFTFDSYGMNWVRQAPGKGLEWVSGINYNSGYTSYADSVKGRFTISRDNSKNTLYLQMNSLRAEDTAVYYCARGANWHDTALDYWGQGTLVTVSS VL: DIQMTQSPSSLSASVGDRVTITCRASQSISSYLNWYQQKPGKAPKLVIYAVTSRASGVPSRFSGSGSGTDFTLTISSLQPEDFATYYCQQSYESPLTFGGGTKVEIK
2.34

meta.source: patent US20210380703A1
